Exercise: state measured viability (% of control) for each of the compounds provided.
# method.description: BET inhibitor-based combinations targeting novel dependencies in MECOM-rearranged (r) AML: AML-194 cell line (AID 2202237;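 also: plate controls were vehicle wells for no effect and wells without cells for full effect; nearly all actives have a fitted effect of over 40% in size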)
# stated.conditions: AML-194 (MECOM-r AML) viability, CellTiter-Glo, 48 h; series mostly up to 46 µM
Records with an inconclusive call do not appear. Activity calls are given as the source filed them. Calls follow the shape of the dose curve; as a rule, active = well fitted inhibition curve with a large enough effect; inconclusive = small, poorly fitted or top-dose-only effect; inactive = flat fitted curve, though single readings scatter.

Previously resolved entries follow.
Nc1ccn(C[C@@H](CO)OCP(=O)(O)O)c(=O)n1	105% [at 8.46 µM] (inactive)
CN[C@@H](C)[C@H]1[C@H](O)C[C@@]2(C)[C@@H]3CC[C@H]4C(C)(C)[C@@H](NC)CC[C@@]45C[C@@]35CC[C@]12C	117% [at 8.46 µM] (inactive)
Cn1cc(C2=C(c3c4n(c5ccccc35)CCC(CN)C4)C(=O)NC2=O)c2ccccc21 (stereo not given)	98.9% [at 8.46 µM] (inactive)
COc1c(C)cc(NC(=O)c2nn(Cc3ccc(F)cc3)c3c2CN(C(=O)c2ccc[nH]2)C[C@]3(C)C(N)=O)cc1C	108% [at 8.46 µM] (inactive)

In the following, a different compound is considered.
Exam item: Tell me its viability (% of control) given CC(C)NC(=O)N1CC[C@H](N=C2Nc3cc(F)ccc3N(CC(F)F)c3ccc(Cl)cc32)C1 as the entry.
Marked response: 93.8% [at 8.46 µM] (inactive)

====

# method.description: BET inhibitor-based combinations targeting novel dependencies in MECOM-rearranged (r) AML: SET-2 cell line (AID 2202231); also: potency is read from the fitted curve at half-maximal effect; nearly all actives have a fitted effect of over 35% in size
# stated.conditions: SET-2 AML cells viability, CellTiter-Glo luminescence, 48 h
Inconclusive results are not listed. The source made the active and inactive calls. The call rests on the fitted dose curve; in most records, active means well fitted inhibition curve with a large enough effect; inconclusive means small, poorly fitted or top-dose-only effect; inactive means no such curve, though single readings can be large or run the other way.
readout.type: Potency

Previously resolved entries follow.
CC(C)C[C@H](NC(=O)[C@H](Cc1ccccc1)NC(=O)c1cnccn1)B(O)O	16.6 nM (active)
CCc1cncnc1N1CCN(Cc2nc3ccc(C(F)(F)F)cc3[nH]2)CC1	14800 nM (active)
Cn1cnc([N+](=O)[O-])c1Sc1ncnc2nc[nH]c12	1660 nM (active)

Give one value of Potency per listed compound.
1. CC1(C)CC(=O)c2c(C(F)(F)F)nn(-c3ccc(C(N)=O)c(NC4CCC(OC(=O)CN)CC4)c3)c2C1 (centres undefined)
2. Cc1sc2c(c1C)C(c1ccc(Cl)cc1)=N[C@@H](CC(=O)Nc1ccc(OCCOCCOCCOCCNc3cccc4c3C(=O)N(C3CCC(=O)NC3=O)C4=O)cc1)c1nnc(C)n1-2 (some centres undefined)
3. CC(C)[C@H](CO)Nc1nc(Nc2cccc(Cl)c2)c2ncn(C(C)C)c2n1
4. Cc1ccc(C(N)=O)cc1Nc1nccc(-c2cn(C(C)C)c3cnccc23)n1

Marked response:
263 nM (active)
1050 nM (active)
16600 nM (active)
7420 nM (active)

Give one value of Potency per listed compound.
1. Cc1cnc(Nc2cccc(CN3CCOCC3)c2)nc1Nc1cccc(S(=O)(=O)NC(C)(C)C)c1
2. N=c1ccn2c(n1)O[C@H]1[C@@H](O)[C@@H](CO)O[C@H]12
3. Fc1ccc2[nH]ccc2c1-c1nc(N2CCOCC2)c2sc(CN3CCN(CC4CC4)CC3)cc2n1
4. Cn1c(=O)c(F)c(Nc2ccc(I)cc2F)c2c(=O)n(C[C@@H](O)CO)cnc21
5. COc1ccc(S(=O)(=O)Nc2cccnc2Nc2ccc(O)cc2)cc1
6. CC(=O)c1cnc2ccc(-c3cc(Cl)c(O)c(Cl)c3)nc2c1NC1CCC(CN(C)C)CC1 (centres undefined)
7. c1ccc2c(CCNc3ccc(Nc4ccncc4)cc3)c[nH]c2c1

Marked response:
["2630 nM (active)", "1050 nM (active)", "23500 nM (active)", "16600 nM (active)", "1320 nM (active)", "60.5 nM (active)", "10500 nM (active)"]

Give one value of Potency per listed compound.
1. CC(C)c1nn(-c2c(Cl)cccc2Cl)c2nc(Cc3ccc(OCCO)cc3)[nH]c(=O)c12
2. Nc1ccccc1NC(=O)c1ccc(CNc2nccc(-c3cccnc3)n2)cc1
3. Cn1ncnc1[C@H]1c2n[nH]c(=O)c3cc(F)cc(c23)N[C@@H]1c1ccc(F)cc1

Marked response:
1. 41.7 nM (active)
2. 1660 nM (active)
3. 3720 nM (active)

Give one value of Potency per listed compound.
1. Nc1cccc(-c2cc3c(Oc4cccc(O)c4)ncnc3[nH]2)c1
2. CC(C)CC(=O)Nc1n[nH]c2c1CN(C(=O)C1CCN(C)CC1)C2(C)C

Marked response:
1: 20900 nM (active); 2: 10500 nM (active)
